tested on: HOP-62 NSCLC; assay: NCI tumour cell line growth inhibition, 48 h
Catalogue of compounds with associated TGI

Some compounds with known TGI results, for comparison:
CSC1=C(N)C(=O)c2[nH]cc(CO)c2C1=N : 0.342 µM
C/C(=N/NC(=S)N1CCCCC1)c1ccccc1O : > 100 µM
C/C=C/c1cc(=O)c([C@@H]2OC(=O)c3cc(OC)cc(OC)c32)co1 : > 100 µM
NC(=O)N/N=C1/CCC(O)CC1CC(=O)O (stereo unspecified) : > 100 µM
Cc1cccc(Nc2nn3c(=O)c4c5c(sc4nc3s2)CCCC5)c1 : > 100 µM
CCOC(=O)CCC(NC(=O)OCc1ccccc1)C(=O)NC(CCC(=O)OCC)C(=O)NC(CCC(=O)OCC)C(=O)NC(CCC(=O)OCC)C(=O)NC(CCC(=O)OCC)C(=O)NC(CCC(=O)OCC)C(=O)NC(CCC(=O)OCC)C(=O)OCC (stereo unspecified) : > 100 µM

## Task Return reported TGI; argument: CCOc1cc2c(C(=O)CC)c(O)ccc2o1
## Result > 100 µM

## Task Consider the compound shown here: CC1CCC/C1=C(/I)C(=O)c1ccccc1 (stereo unspecified) What is its recorded TGI?
## Result > 100 µM

----------
tested on: HS 578T breast; assay: NCI tumour cell line growth inhibition, 48 h
EXPERIMENTAL ENDPOINT: TGI

Below, each entry is followed by its recorded TGI result.
C=C/C(C)=C\CC1[C@](C)(O)CC[C@H]2C(C)(C)C(=O)CC[C@]12C (stereo partly specified) : > 100 µM
COc1ccc(CC(N)c2ccc(OC)cc2)cc1 (stereo unspecified) : > 100 µM
CCNC(=S)N=Nc1c(O)[nH]c2ccc([N+](=O)[O-])cc12 : > 100 µM

## Task Form field: TGI recorded for O=c1[nH]nc(-c2ccccc2)n1/N=C\c1ccccc1 with HS 578T breast (enter value)
## Result > 100 µM

## Task Give the reported TGI for COC1CC(O[C@H]2CC[C@@]3(C)[C@H](CC[C@@H]4[C@@H]3CC[C@]3(C)[C@@H](C5=CC(=O)OC5)[C@@H](OC(C)=O)C[C@]43O)C2)OC(C)C1O (stereo partly specified) (system: HS 578T breast).
## Result < 0.0145 µM

## Task API: value(readout=TGI, system=HS 578T breast) for record O=S(Nc1ccccc1)c1ccc(N2CCOCC2)cc1 (stereo unspecified)
## Result > 100 µM

----------
test system: SK-MEL-2 melanoma; assay: NCI tumour cell line growth inhibition, 48 h
EXPERIMENTAL ENDPOINT: GI50

Below: 10 molecules and their reported GI50.
C=C1C(O)C2C(=C(CC)C13CC3)C(=O)C(C)(C)C2OC (stereo not drawn) : > 100000 nM
NCCCC[C@@H]1NC(=O)[C@H]2CCCN2C(=O)[C@H](Cc2ccccc2)CNC(=O)[C@H](Cc2ccccc2)NC1=O : > 37500 nM
O=C(/C=C/Sc1cc(C(F)(F)F)cc(C(F)(F)F)c1)c1ccc(Cl)cc1 : 31100 nM
N#C/C(=C\c1ccsc1)c1nc2ccccc2o1 : 98500 nM
Cn1ncnc1[C@H]1c2n[nH]c(=O)c3cc(F)cc(c23)N[C@@H]1c1ccc(F)cc1 : > 100000 nM
CC[C@@]1(O)C(=O)OCc2c1cc1n(c2=O)Cc2cc3cc4c(cc3nc2-1)OCO4 : 204 nM
O=C1c2cc3c(cc2[C@@H]2[C@H]1c1ccc([N+](=O)[O-])cc1C(=O)N2CCCBr)OCO3 : 2150 nM
C=C(C)[C@@H]1CC[C@]2(C(=O)N[C@H](CO)Cc3ccccc3)CC[C@]3(C)[C@H](CC[C@@H]4[C@@]5(C)CCCNC(C)(C)[C@@H]5CC[C@]43C)[C@@H]12 : 1720 nM
O=C(Nc1ccc(Br)cc1F)c1cc(I)ccc1O : 2000 nM
O=C(Nc1cccc(-n2cc(-c3ccncc3)c(-c3ccc(Cl)c(O)c3)n2)c1)Nc1cc(C(F)(F)F)cc(C(F)(F)F)c1 : 999 nM

## Task Recorded GI50 for CC1=C(c2cccc(O)c2)[C@H](c2ccc(OCCN3CC(CF)C3)cc2)Oc2ccc(O)cc21 with SK-MEL-2 melanoma, please?
## Result 7200 nM

## Task Give recorded GI50 with SK-MEL-2 melanoma for the following molecule: COc1cc(C(=O)c2c(-c3ccccc3)oc3c(OC)cccc23)cc(OC)c1OC
## Result 2400 nM

## Task Please state recorded GI50 (tested on SK-MEL-2 melanoma) of Cc1cc2c(C(C)C)c(O)c(O)cc2c(O)c1-c1c(C)cc2c(C(C)C)c(O)c(O)cc2c1O
## Result 17700 nM

----------
tested on: OVCAR-3 ovarian; assay: NCI tumour cell line growth inhibition, 48 h
# TGI annotations

Below: 5 compounds and their reported TGI.
CCN(CC)N1C(=O)[N+](CC)(CC)N=C1[O-] : > 100 µM
CN(C(=O)C12C3C4C1C1C2C3C41C(N)=O)C(C)(C)C (stereo unspecified) : > 100 µM
C[C@H](NC(=O)C(Cc1ccccc1)(Cc1ccc(O)cn1)NC(=O)c1ccccc1)c1ccccc1 (stereo partly specified) : 28.7 µM
CC(=C(c1ccccc1)c1ccccc1)N1C(=O)CC(=O)N1C : > 100 µM
CC1=C(C(=O)Nc2ccc3n[nH]c(C)c3c2)C(c2ccc(C(F)(F)F)cc2)CC(=O)N1 (stereo unspecified) : > 25 µM

## Task TGI lookup needed for C[C@@H]1[C@H](C)N1CC(O)Cn1ccnc1[N+](=O)[O-] (stereo partly specified) , thanks.
## Result > 100 µM

----------
tested on: SW-620 colon; assay: NCI tumour cell line growth inhibition, 48 h
Item-by-item account of TGI

CN(C)C(=O)OC1C(=O)N(C)c2ccc(Cl)cc2C2(c3ccccc3)N1C2(Cl)Cl (stereo not drawn) : > 100 µM

## Task Any idea what its TGI is? The compound is CN(C(=O)C12C3C4C1C1C2C3C41C(N)=O)C(C)(C)C (stereo not drawn)
## Result > 100 µM

## Task Looking for the measured TGI of CC(C)CCCC(C)[C@H]1CCC2[C@@H]3CCC4Cc5nc6c(nc5C[C@]4(C)C3CC[C@@]21C)CC1CC[C@@H]2C(CC[C@@]3(C)C2CC[C@@H]3C(C)CCCC(C)C)[C@@]1(C)C6 (stereo partly drawn) , can you help?
## Result > 100 µM

----------
The reader will find reported TGI values listed item by item below.
test system: UO-31 renal; assay: NCI tumour cell line growth inhibition, 48 h

CC1(C)C2CCC13C(=O)C1OC3(C2)C2C(=O)c3ccccc3C(=O)C12 (stereo not drawn) : > 100 µM

## Task Any idea what TGI was measured for CCOC(C[C@H](O[Si](C)(C)C(C)(C)C)[C@H]1COC(=S)S1)OCC ?
## Result > 100 µM

## Task So what's the measured TGI for this one? CCCCCCCCCCCCCCCC(=O)OCC1OC(n2cc(F)c(=O)[nH]c2=O)C(N)C(O)C1O (stereo not drawn)
## Result 30.8 µM

----------
tested on: MOLT-4 leukemia; test: NCI tumour cell line growth inhibition, 48 h; in the data active = GI50 below about 0.43 µM; inactive = the rest
Please state which outcome applies, choosing from YES (active), NO (inactive)

Cc1ccccc1OCC(O)CN1CCN(c2ccc(Cl)cc2)CC1 (centres undefined) : NO
N#C/C(=C\c1ccsc1)c1nc2ccccc2o1 : NO
Cc1ccc(S(=O)(=O)c2c(COC(=O)c3cccc(C)c3)c(-c3ccccc3)nn2C)cc1 : NO
CC1(C)C2CCC13C(=O)C1OC3(C2)C2C(=O)c3ccccc3C(=O)C12 (centres undefined) : NO
CC1=C(c2cccc(O)c2)[C@H](c2ccc(OCCN3CC(CF)C3)cc2)Oc2ccc(O)cc21 : NO

## Task Could you please tell me the result logged for O=C(N/N=C/C=C/c1ccc([N+](=O)[O-])o1)c1cc2ccccc2cc1O in this assay?
## Result NO

## Task Outcome? COc1ccc(C/C(C)=C(/c2ccc(OCCN3CCCCC3)cc2)c2ccc(OC(=O)NCc3ccccc3)cc2)cc1
## Result YES

## Task Per the assay record, what outcome was assigned to CN(C)CCN1C(=O)c2c(c3c4ccccc4n4c3c3c2c2ccccc2n3C2CC(O)C(O)C4(C)O2)C1=O (centres undefined) ?
## Result YES

----------
system: HT29 colon; test: NCI tumour cell line growth inhibition, 48 h
// values below are reported TGI

Cc1cccc(Nc2nn3c(=O)c4c5c(sc4nc3s2)CCCC5)c1 : > 100 µM

## Task Would you kindly share the measured TGI for CCCCC(=O)c1c(O)nc2sccn2c1=O ?
## Result > 10 µM

## Task Which TGI is listed for O=C1c2cc3c(cc2[C@@H]2[C@H]1c1ccc([N+](=O)[O-])cc1C(=O)N2CCCBr)OCO3 ?
## Result > 100 µM

## Task What does the record list as TGI for CC1=C(c2cccc(O)c2)[C@H](c2ccc(OCCN3CC(CF)C3)cc2)Oc2ccc(O)cc21 ?
## Result 12.8 µM

## Task Bench note: what TGI did OCCO/N=C1\C(c2c(O)[nH]c3ccccc23)=Nc2ccccc21 show?
## Result > 100 µM

## Task Please look up its TGI: COC(OC)[C@@H]1OC[C@H](n2cnc3c(N)ncnc32)[C@H]1O
## Result > 100 µM

## Task Which measured TGI value corresponds to C=C[C@@H](C)[C@H](NS(=O)(=O)c1ccc(C)cc1)C(=O)OCC ?
## Result 59.9 µM

## Task Bench note: what TGI did OC1(C23CC4CC(CC(C4)C2)C3)CSCC1(O)C12CC3CC(CC(C3)C1)C2 (stereo not given) show?
## Result > 100 µM
